- System: NCI-H441
- measurement.description: relative viability (nuclei count vs DMSO), 5 days (fraction); higher = more cells survive
- condition.description: first compound 0.02 µM
Please note: relative viability exactly at 0.6 is FALSE. Only values below 0.6 get TRUE.

compound	discrete.label
CCNC(=O)c1noc(-c2cc(C(C)C)c(O)cc2O)c1-c1ccc(CN2CCOCC2)cc1 [Luminespib] + COc1cc2c(Oc3ccc(NC(=O)C4(C(=O)Nc5ccc(F)cc5)CC4)cc3F)ccnc2cc1OCCCN1CCOCC1 [Foretinib] (partner 0.25 µM)	FALSE
CCNC(=O)c1noc(-c2cc(C(C)C)c(O)cc2O)c1-c1ccc(CN2CCOCC2)cc1 [Luminespib] + C[C@]1(O)C[C@@H](c2nc(-c3ccc4ccc(-c5ccccc5)nc4c3)c3c(N)nccn32)C1 [Linsitinib] (partner 1 µM)	TRUE
CCNC(=O)c1noc(-c2cc(C(C)C)c(O)cc2O)c1-c1ccc(CN2CCOCC2)cc1 [Luminespib] + O=C(CCCCCCC(=O)Nc1ccccc1)NO [Vorinostat] (partner 1 µM)	FALSE
CCNC(=O)c1noc(-c2cc(C(C)C)c(O)cc2O)c1-c1ccc(CN2CCOCC2)cc1 [Luminespib] + NC(=O)Nc1cc(-c2cccc(F)c2)sc1C(=O)N[C@H]1CCCNC1 [AZD7762] (partner 0.2 µM)	FALSE
CCNC(=O)c1noc(-c2cc(C(C)C)c(O)cc2O)c1-c1ccc(CN2CCOCC2)cc1 [Luminespib] + CC(=O)c1c(C)c2cnc(Nc3ccc(N4CCNCC4)cn3)nc2n(C2CCCC2)c1=O [Palbociclib] (partner 0.5 µM)	TRUE
CN1CCN(CCOc2cc(OC3CCOCC3)c3c(Nc4c(Cl)ccc5c4OCO5)ncnc3c2)CC1 [Saracatinib] + N=C(N)NC(=N)NCCc1ccccc1 [Phenformin] (partner 250 µM)	FALSE
CCNC(=O)c1noc(-c2cc(C(C)C)c(O)cc2O)c1-c1ccc(CN2CCOCC2)cc1 [Luminespib] + Cc1nc(NC(=O)N2CCC[C@H]2C(N)=O)sc1-c1ccnc(C(C)(C)C(F)(F)F)c1 [Alpelisib] (partner 2 µM)	FALSE
CN1CCN(CCOc2cc(OC3CCOCC3)c3c(Nc4c(Cl)ccc5c4OCO5)ncnc3c2)CC1 [Saracatinib] + O=C(CCCCCCC(=O)Nc1ccccc1)NO [Vorinostat] (partner 1 µM)	FALSE
CN1CCN(CCOc2cc(OC3CCOCC3)c3c(Nc4c(Cl)ccc5c4OCO5)ncnc3c2)CC1 [Saracatinib] + CC(=O)c1c(C)c2cnc(Nc3ccc(N4CCNCC4)cn3)nc2n(C2CCCC2)c1=O [Palbociclib] (partner 0.5 µM)	TRUE
CN1CCN(CCOc2cc(OC3CCOCC3)c3c(Nc4c(Cl)ccc5c4OCO5)ncnc3c2)CC1 [Saracatinib] + CC(C)C[C@H](NC(=O)[C@H](Cc1ccccc1)NC(=O)c1cnccn1)B(O)O [Bortezomib] (partner 0.002 µM)	TRUE
CN1CCN(CCOc2cc(OC3CCOCC3)c3c(Nc4c(Cl)ccc5c4OCO5)ncnc3c2)CC1 [Saracatinib] + O=C(c1cc(Cc2n[nH]c(=O)c3ccccc23)ccc1F)N1CCN(C(=O)C2CC2)CC1 [Olaparib] (partner 8 µM)	TRUE
CCNC(=O)c1noc(-c2cc(C(C)C)c(O)cc2O)c1-c1ccc(CN2CCOCC2)cc1 [Luminespib] + COc1cccc2cc(-c3nc([C@H]4CC[C@H](C(=O)O)CC4)n4ncnc(N)c34)[nH]c12 [OSI-027] (partner 0.5 µM)	TRUE
CN1CCN(CCOc2cc(OC3CCOCC3)c3c(Nc4c(Cl)ccc5c4OCO5)ncnc3c2)CC1 [Saracatinib] + Cc1cc(Nc2cc(N3CCN(C)CC3)nc(Sc3ccc(NC(=O)C4CC4)cc3)n2)n[nH]1 [Tozasertib] (partner 0.1 µM)	TRUE
CN1CCN(CCOc2cc(OC3CCOCC3)c3c(Nc4c(Cl)ccc5c4OCO5)ncnc3c2)CC1 [Saracatinib] + CC1(C)CCC(c2ccc(Cl)cc2)=C(CN2CCN(c3ccc(C(=O)NS(=O)(=O)c4ccc(N[C@H](CCN5CCOCC5)CSc5ccccc5)c(S(=O)(=O)C(F)(F)F)c4)cc3)CC2)C1 [Navitoclax] (partner 0.5 µM)	TRUE
CCNC(=O)c1noc(-c2cc(C(C)C)c(O)cc2O)c1-c1ccc(CN2CCOCC2)cc1 [Luminespib] + CC1(C)CCC(c2ccc(Cl)cc2)=C(CN2CCN(c3ccc(C(=O)NS(=O)(=O)c4ccc(N[C@H](CCN5CCOCC5)CSc5ccccc5)c(S(=O)(=O)C(F)(F)F)c4)cc3)CC2)C1 [Navitoclax] (partner 0.5 µM)	FALSE
